B1: GNB5 (parent)
chain: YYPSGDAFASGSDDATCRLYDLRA

- Variants of: B1
- Test Protocol: protein stability index of a GFP-peptide fusion (GPS, HEK-293T) (PSI 1-6); higher = more stable;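 further: lentivirally expressed fusions sorted by FACS into six bins by GFP to DsRed ratio, PSI derived from sequencing read proportions per bin multiplied by bin number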
- Run Conditions: c terminus: a fixed tail appended
Please go through the items and note down their protein stability index.
Numbers only.

Example cases with answers are listed next.
{"columns": ["Alteration", "protein stability index"],
 "data": [
  ["D21N", 1.99],
  ["Y2T", 1.96]
]}

Pending variant:
# protein stability index lookup, item D21T 1.99
